# Species on record: Bos taurus
# Experiment Summary: Activation of bovine brain cAMP-dependent protein kinase assessed as transfer of p32 to histone using [gamma-32P]ATP at 10^-4 M relative to cAMP triester
Recorded Ratio by entry

# Molecule, Ratio
rows = [
    ("Nc1ncnc2c1ncn2[C@@H]1O[C@@H]2CO[P@@](=O)(OCc3ccc([N+](=O)[O-])cc3)O[C@H]2[C@H]1O", 1.01),
    ("COP1(=O)OC[C@H]2O[C@@H](n3cnc4c(N)ncnc43)[C@H](O)[C@@H]2O1 (some centres not stated)", 0.67),
    ("Nc1ncnc2c1ncn2[C@@H]1O[C@@H]2COP(=O)(OCc3ccccc3)O[C@H]2[C@H]1O (single isomer, unassigned)", 0.45),
    ("CCO[P@@]1(=O)OC[C@H]2O[C@@H](n3cnc4c(N)ncnc43)[C@H](O)[C@@H]2O1", 0.14),
    ("Nc1ncnc2c1ncn2[C@@H]1O[C@@H]2CO[P@](=O)(OCc3ccccc3[N+](=O)[O-])O[C@H]2[C@H]1O", 0.34),
    ("Nc1ncnc2c1ncn2[C@@H]1O[C@@H]2COP(=O)(OCc3ccccc3)O[C@H]2[C@H]1O (some centres not stated)", 0.66),
    ("Nc1ncnc2c1ncn2[C@@H]1O[C@@H]2CO[P@](=O)(OCc3ccc([N+](=O)[O-])cc3)O[C@H]2[C@H]1O", 0.54),
]

src = ChEMBL document CHEMBL3272058
